EC50 (read off the curve) listing for selected binders.
- experimental-target: human cMET (MET, c-Met, HGF receptor) on cells (human) (UniProt P08581)
- Sequence (P08581 25-1390): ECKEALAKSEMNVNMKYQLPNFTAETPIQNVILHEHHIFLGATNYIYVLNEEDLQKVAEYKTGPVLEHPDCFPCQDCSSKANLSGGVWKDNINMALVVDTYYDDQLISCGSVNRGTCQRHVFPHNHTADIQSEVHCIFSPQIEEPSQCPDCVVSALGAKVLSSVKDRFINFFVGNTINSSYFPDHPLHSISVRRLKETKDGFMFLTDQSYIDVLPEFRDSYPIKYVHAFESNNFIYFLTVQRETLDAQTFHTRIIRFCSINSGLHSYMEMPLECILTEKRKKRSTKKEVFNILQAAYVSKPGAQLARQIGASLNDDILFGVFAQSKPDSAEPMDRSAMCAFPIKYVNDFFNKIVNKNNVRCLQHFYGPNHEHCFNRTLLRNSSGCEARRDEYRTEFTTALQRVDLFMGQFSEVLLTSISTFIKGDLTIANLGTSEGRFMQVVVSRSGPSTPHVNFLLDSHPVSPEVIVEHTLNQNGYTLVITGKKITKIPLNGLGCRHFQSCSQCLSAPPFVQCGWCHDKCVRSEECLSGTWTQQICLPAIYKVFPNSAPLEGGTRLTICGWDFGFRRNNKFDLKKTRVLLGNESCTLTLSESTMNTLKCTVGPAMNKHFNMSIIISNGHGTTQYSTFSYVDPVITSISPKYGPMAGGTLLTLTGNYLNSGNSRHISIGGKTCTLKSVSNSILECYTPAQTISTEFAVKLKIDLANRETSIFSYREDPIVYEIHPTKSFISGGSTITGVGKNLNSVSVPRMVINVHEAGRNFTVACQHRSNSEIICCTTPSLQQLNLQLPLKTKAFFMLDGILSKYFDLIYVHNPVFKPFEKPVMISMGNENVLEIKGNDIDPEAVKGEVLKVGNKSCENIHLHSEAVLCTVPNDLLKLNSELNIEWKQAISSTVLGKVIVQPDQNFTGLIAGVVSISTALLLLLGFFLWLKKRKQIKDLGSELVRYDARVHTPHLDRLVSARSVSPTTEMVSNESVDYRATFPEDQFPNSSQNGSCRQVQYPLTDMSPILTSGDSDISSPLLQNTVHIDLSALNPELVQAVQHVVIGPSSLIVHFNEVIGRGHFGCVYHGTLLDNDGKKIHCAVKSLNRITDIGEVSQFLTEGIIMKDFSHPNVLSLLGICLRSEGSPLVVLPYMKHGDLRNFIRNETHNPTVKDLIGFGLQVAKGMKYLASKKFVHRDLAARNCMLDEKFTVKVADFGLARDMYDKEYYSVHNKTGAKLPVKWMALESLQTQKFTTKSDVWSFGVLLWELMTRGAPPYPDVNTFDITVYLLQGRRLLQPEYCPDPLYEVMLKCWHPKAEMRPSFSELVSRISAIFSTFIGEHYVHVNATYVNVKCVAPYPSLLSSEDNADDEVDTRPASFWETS
- assay-info: flow cytometry (FACS) on EBC-1 cells endogenously expressing human cMet, fluorescent secondary antibody
Report as a plain number; the unit nM is understood.

Observe how each entry below is paired with its result.
binder: hucMet22Gv2.2-DGN549 (antibody, human IgG1, kappa, V domains shown, DGN549 conjugate; linkage site not stated for this antibody) VH: QVQLVQSGAEVKKPGASVKVSCKASGYTFTDYNMDWVRQAPGQRLEWIGDLNPNNGATIYNQKFKGRATLTVDMSASTAYMELSSLRSEDTAVYYCARGNYYGNYYYLMDYWGQGTSVTVSS VL: DIQMTQSPSSLSASVGDRVTITCRASENIYSTLAWYQQKPGKAPKLLVYAATNLADGVPSRFSGSGSGTDYTLTISSLQPEDFATYYCQHFWGTPYTFGQGTKVEIKR
readout-type: EC50 (read off the curve)
unit-text: nM
observed: 0.2

binder: hucMet27v1.2-sSPDB-DM4 (antibody, human IgG1, kappa, V domains shown, lysines linked to sSPDB-DM4, on average 3-4 DM4 per antibody) VH: EVQLVESGGGLVQPGGSLRLSCAASGFTFSSYDMSWVRQTPGKGLELVATINSNGVSIYYPDSVKGRFTISRDIAKNTLYLQMSSLRAEDTAMYYCAREEITTEMDYWGQGTSVTVSS VL: DIVLTQSPASLAVSPGQRATISCRASESVDSYGNSFIHWYQQKPGQPPKLLIYRASNLESGIPARFSGSGSRTDFTLTINPVEANDVATYYCQQSNEEPLTFGGGTKLELKR
readout-type: EC50 (read off the curve)
unit-text: nM
observed: 0.2

I would be grateful if you could share the reported EC50 (read off the curve) for hucMet22Gv2.2 (antibody, V domains shown) VH: QVQLVQSGAEVKKPGASVKVSCKASGYTFTDYNMDWVRQAPGQRLEWIGDLNPNNGATIYNQKFKGRATLTVDMSASTAYMELSSLRSEDTAVYYCARGNYYGNYYYLMDYWGQGTSVTVSS VL: DIQMTQSPSSLSASVGDRVTITCRASENIYSTLAWYQQKPGKAPKLLVYAATNLADGVPSRFSGSGSGTDYTLTISSLQPEDFATYYCQHFWGTPYTFGQGTKVEIKR . 0.1
